src = BindingDB's records for doi:10.7270/Q2KK9971

- TARGET SYSTEM: GTPase KRas [1-37] (Homo sapiens, UniProt G3V5T7)
- Construct: 1-37
- Sequence (G3V5T7 whole entry): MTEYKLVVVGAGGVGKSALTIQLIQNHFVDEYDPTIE
- ASSAY TEXT: Ras wild-type GTP-binding inhibitors, SAR follow-up, biochemical, pyrazoline analogs, multiplex bead flow cytometry (AID 2047)
EXPERIMENTAL READOUT: EC50

COc1ccc(-c2cc(-c3ccccc3)nn2-c2ccc(S(N)(=O)=O)cc2)cc1 : > 30 µM
COc1ccc(C2CC(c3ccc(N(C)C)cc3)=NN2c2ccc(S(N)(=O)=O)cc2)cc1 (centres undefined) [KUC103422N] : > 30 µM
COc1ccc(C2=NN(c3ccc(Cl)c(Cl)c3)C(c3ccc(OC)cc3)C2)cc1 (centres undefined) : > 30 µM
Cc1ccc(C2CC(c3ccccc3)=NN2c2ccc(S(N)(=O)=O)cc2)cc1 (centres undefined) : > 30 µM
COc1ccc(C2=NN(c3cccc(F)c3)C(c3ccc(OC)cc3)C2)cc1 (centres undefined) : > 30 µM

Required: EC50, one value per molecule below.
1. COc1ccc(C2CC(c3ccccc3)=NN2c2ccc(C(N)=O)cc2)cc1 (centres undefined)
2. COc1ccc(C2CC(c3cccnc3)=NN2c2ccc(S(N)(=O)=O)cc2)cc1 (centres undefined)
3. COc1ccc(C2CC(c3cccc(F)c3)=NN2c2ccc(S(N)(=O)=O)cc2)cc1 (centres undefined)
4. NS(=O)(=O)c1ccc(N2N=C(c3ccccc3)CC2c2ccccc2Br)cc1 (centres undefined)

1. > 30 µM
2. > 30 µM
3. > 30 µM
4. > 30 µM
